The measured values listed here are drawn from ChEMBL document CHEMBL2218924.

Assay target: Serine/threonine-protein kinase tousled-like 2 (Homo sapiens) (UniProt Q86UE8)
Sequence (Q86UE8 whole entry, looked up): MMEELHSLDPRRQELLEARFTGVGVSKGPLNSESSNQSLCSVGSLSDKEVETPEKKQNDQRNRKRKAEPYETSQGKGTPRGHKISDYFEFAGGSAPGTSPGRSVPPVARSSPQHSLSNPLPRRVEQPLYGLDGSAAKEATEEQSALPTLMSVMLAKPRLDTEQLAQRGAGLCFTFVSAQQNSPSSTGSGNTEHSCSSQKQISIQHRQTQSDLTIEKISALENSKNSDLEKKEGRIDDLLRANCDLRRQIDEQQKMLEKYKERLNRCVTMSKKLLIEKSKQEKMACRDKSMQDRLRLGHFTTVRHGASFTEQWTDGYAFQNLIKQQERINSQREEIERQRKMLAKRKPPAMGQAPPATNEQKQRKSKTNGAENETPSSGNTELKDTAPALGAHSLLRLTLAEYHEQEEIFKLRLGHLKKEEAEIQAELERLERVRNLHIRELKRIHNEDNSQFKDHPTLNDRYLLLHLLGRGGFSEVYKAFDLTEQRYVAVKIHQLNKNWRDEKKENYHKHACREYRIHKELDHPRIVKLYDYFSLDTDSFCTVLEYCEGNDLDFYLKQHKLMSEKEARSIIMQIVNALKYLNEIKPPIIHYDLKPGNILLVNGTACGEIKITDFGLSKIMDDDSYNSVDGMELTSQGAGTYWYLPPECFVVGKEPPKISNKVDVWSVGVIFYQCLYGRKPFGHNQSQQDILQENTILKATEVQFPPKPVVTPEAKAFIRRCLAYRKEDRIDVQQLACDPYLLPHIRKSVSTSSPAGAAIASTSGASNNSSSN
Measurement parameters: at 1 µM
Exercise: state measured residual activity for each of the molecules provided.
Numbers only; they are read as %.

Which residual activity value is on record for Cc1ccc(NC2=CC(=O)c3sc(C)nc3C2=O)cc1 ?
87

Which residual activity value is on record for c1ccc(-c2n[nH]cc2-c2ccnc3ccccc23)nc1 ?
96

Which residual activity value is on record for O=C1Nc2ccc(Br)cc2/C1=C\c1cc2c([nH]1)CCCC2 ?
107

Which residual activity value is on record for Oc1n[nH]c2nnc(-c3c(-c4ccccc4)nn4ccccc34)cc12 ?
83

Which residual activity value is on record for Cc1cc(Nc2nc(-c3ccccc3)nc3ccccc23)n[nH]1 ?
62

Which residual activity value is on record for CC(=O)O/N=C1\C(=C2\C(=O)Nc3cc(Br)ccc32)Nc2ccccc21 ?
92

Which residual activity value is on record for Cn1nc2c3c(cccc31)C(=O)c1ccccc1-2 ?
95

Which residual activity value is on record for COc1ccc(OC)c2c(=S)c3ccccc3[nH]c12 ?
84

Which residual activity value is on record for NC(=O)c1ccc2[nH]c(-c3ccc(Oc4ccc(Cl)cc4)cc3)nc2c1 ?
86

Which residual activity value is on record for Ic1cccc(CSc2nnc(-c3ccncc3)o2)c1 ?
83

Which residual activity value is on record for CC(C)n1cnc2c(NCc3ccccc3)nc(NCCCO)nc21 ?
96

Which residual activity value is on record for Nc1cccc(-c2cc3c(Oc4cccc(O)c4)ncnc3[nH]2)c1 ?
90

----------
Exercise: state measured residual activity for each of the molecules provided.
Assay target: Macrophage colony-stimulating factor 1 receptor (Homo sapiens)
Measurement parameters: at 10 µM
Numbers only; they are read as %.

For Macrophage colony-stimulating factor 1 receptor (Homo sapiens), provide residual activity of O=C1Nc2ccc(Br)cc2/C1=C\c1cc2c([nH]1)CCCC2 please.
3

For Macrophage colony-stimulating factor 1 receptor (Homo sapiens), provide residual activity of O=C(O)c1ccc2c3c1cccc3c(=O)n1c3ccccc3nc21 please.
75

For Macrophage colony-stimulating factor 1 receptor (Homo sapiens), provide residual activity of N#CC(C#N)=C(N)/C(C#N)=C/c1ccc(O)cc1 please.
86

For Macrophage colony-stimulating factor 1 receptor (Homo sapiens), provide residual activity of CCOc1cc2ncnc(Nc3cccc(Br)c3)c2cc1OCC please.
27

For Macrophage colony-stimulating factor 1 receptor (Homo sapiens), provide residual activity of COc1cc2ncnc(Nc3ccc(Oc4ccccc4)cc3)c2cc1OC please.
53

For Macrophage colony-stimulating factor 1 receptor (Homo sapiens), provide residual activity of Cc1nc(-c2ccccc2)c(-c2ccncc2)o1 please.
86

For Macrophage colony-stimulating factor 1 receptor (Homo sapiens), provide residual activity of CNc1cc2c(Nc3cccc(Br)c3)ncnc2cn1 please.
59

For Macrophage colony-stimulating factor 1 receptor (Homo sapiens), provide residual activity of Oc1ccc(-c2nc(-c3ccc(F)cc3)c(-c3ccncc3)[nH]2)cc1 please.
58

For Macrophage colony-stimulating factor 1 receptor (Homo sapiens), provide residual activity of COc1ccc(S(=O)(=O)N(CCO)c2ccccc2CN(C)C/C=C/c2ccc(Cl)cc2)cc1 please.
64

----------
Assay target: Receptor-interacting serine/threonine-protein kinase 2 (Homo sapiens) (UniProt O43353);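 note: residual kinase activity of the enzyme remaining, given as percent of control, assayed in 8 mM MOPS pH 7.0 buffer with 0.2 mM EDTA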
Sequence (O43353 whole entry): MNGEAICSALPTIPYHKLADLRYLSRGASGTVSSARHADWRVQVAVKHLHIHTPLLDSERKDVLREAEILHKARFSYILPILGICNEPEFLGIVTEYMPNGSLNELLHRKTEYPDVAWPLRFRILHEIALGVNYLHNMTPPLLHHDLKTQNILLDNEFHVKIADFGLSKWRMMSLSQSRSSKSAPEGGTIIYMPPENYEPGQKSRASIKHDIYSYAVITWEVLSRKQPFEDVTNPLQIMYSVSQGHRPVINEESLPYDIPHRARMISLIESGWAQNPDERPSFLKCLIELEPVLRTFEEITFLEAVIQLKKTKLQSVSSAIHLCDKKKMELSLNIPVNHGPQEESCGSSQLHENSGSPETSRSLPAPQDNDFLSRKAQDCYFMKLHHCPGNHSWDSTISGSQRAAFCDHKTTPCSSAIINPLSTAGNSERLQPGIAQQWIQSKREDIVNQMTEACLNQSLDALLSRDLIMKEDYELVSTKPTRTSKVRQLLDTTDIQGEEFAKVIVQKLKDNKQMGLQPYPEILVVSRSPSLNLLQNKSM
Measurement parameters: at 10 µM
Description: Millipore: Percentage of residual kinase activity of RIPK2 at 10uM relative to control. Control inhibitor: Phosphoric acid* at 0.3uM. Buffer: 8 mM MOPS pH 7.0, 0.2 mM EDTA
Readout: residual activity (%)
Numbers only; they are read as %.

Which residual activity value is on record for Nc1nc(Nc2ccc(S(N)(=O)=O)cc2)nn1C(=S)Nc1c(F)cccc1F ?
29

Which residual activity value is on record for COc1cc2ncnc(N3CCN(C(=O)Nc4ccc(Oc5ccccc5)cc4)CC3)c2cc1OC ?
70

Which residual activity value is on record for COc1cc2ncc(-c3ccccc3)nc2cc1OC ?
58

Which residual activity value is on record for CC#CC(=O)Nc1cc2c(Nc3ccc(F)c(Cl)c3)ncnc2cn1 ?
60
